experiment: NCI Yeast Anticancer Drug Screen. Data for the mlh1 rad18 strain (AID 175); settings: S. cerevisiae mlh1 rad18 strain growth inhibition; at 50.0 µM; stronger effect = higher value
About 79,000 compounds went through this panel and 15% of them were active in at least one assay; those are over-represented in the sample as a whole.
Provide the reported growth inhibition of each item.
Numeric answer only, unit % assumed.

### Prompt Give its growth inhibition value. Item: CCSC(C(O)C(O)C(O)C(O)CO)n1cc(C)c(=O)[nH]c1=O (stereo not given)
### Response -0.25

### Prompt Give its growth inhibition value. Item: "O=C(/C=C/c1ccc(O)c(O)c1)c1ccc(O)c(O)c1O"
### Response 19.5

### Prompt Give its growth inhibition value. Item: "COc1ccc(C(=O)c2ccc(OC)cc2)cc1"
### Response -15.1

### Prompt Give its growth inhibition value. Item: "NC(N)=NC(N)=NCc1ccccc1"
### Response 0.85

### Prompt Give its growth inhibition value. Item: "Cc1ccc2nc(N(C)C)nc-2c2[nH]c(=O)[nH]c12"
### Response -19.3

### Prompt Give its growth inhibition value. Item: "O=c1[nH]cnc2c1ncn2CCCCO"
### Response 10.4

### Prompt Give its growth inhibition value. Item: "O=c1c(Cl)c(Cl)cnn1CCc1ccncc1"
### Response -2.65

### Prompt Give its growth inhibition value. Item: "O=C(C[n+]1cccc(C(=O)Nc2ccccc2)c1)Nc1ccc(Cl)cc1"
### Response 7.35

### Prompt Give its growth inhibition value. Item: "O=C1N(Cc2ccccc2)[C@H]2CS(=O)(=O)C[C@@H]2N1Cc1ccccc1"
### Response 12.7

### Prompt Give its growth inhibition value. Item: "Cc1nc2scc(C)c2c(=S)[nH]1"
### Response -2.45

### Prompt Give its growth inhibition value. Item: "O=C(CCCCC(=O)OC1CCCCC1)OC1CCCCC1"
### Response 10.8

### Prompt Give its growth inhibition value. Item: c1cc2cc3c4c5c(cc6ccc7cc8cc9c%10c8c8c7c6c5c8c5c%10c(c1C9N1CCOCCOCCOCCOCCOCC1)c2c45)C3 (stereo not given)
### Response -9.9

### Prompt Give its growth inhibition value. Item: "CCCCCCC(=O)N1SC(NC(=O)OC)=Nc2ccccc21"
### Response 41

### Prompt Give its growth inhibition value. Item: CC1CC(NN(C)C)C2(C(N)=O)C(N)=NC(=O)C12C#N (stereo not given)
### Response -46.1

### Prompt Give its growth inhibition value. Item: O=C1C=C[C@@H](COC2OC(CO)C(O)C(O)C2O)O1 (stereo not given in full)
### Response 27.8

### Prompt Give its growth inhibition value. Item: CCCC(C)C(=O)OC1CCCC1 (stereo not given)
### Response 2.95

### Prompt Give its growth inhibition value. Item: c1ccc(C2Nc3ccccc3C3OCCCC23)cc1 (stereo not given)
### Response 1.7

### Prompt Give its growth inhibition value. Item: "CCC1(CC)NC(=S)NC1=S"
### Response 20

### Prompt Give its growth inhibition value. Item: "COc1cc(C2=N/C(=C\C=C\c3ccccc3)C(=O)O2)cc(OC)c1OC"
### Response 16.9

### Prompt Give its growth inhibition value. Item: "Cc1cc2nc(N)n[n+]([O-])c2cc1C"
### Response -24.9

### Prompt Give its growth inhibition value. Item: "CCN(CC)CCOc1cc(C)ccc1C(C)C"
### Response 26.4

### Prompt Give its growth inhibition value. Item: "COc1ccc(/C=C/C(=O)c2sc(NC(=S)NC(=O)c3ccc(Cl)cc3)nc2C)cc1OC"
### Response 7.2

### Prompt Give its growth inhibition value. Item: CC(=O)c1cccc(NC(=O)C(=O)C(C(=O)c2ccccc2F)C2OC(=O)c3ccccc32)c1 (stereo not given)
### Response -4.05

### Prompt Give its growth inhibition value. Item: "CSc1ccc(NC(=O)Nc2ccccc2F)cc1"
### Response -9.15

### Prompt Give its growth inhibition value. Item: CCCCC(C(O)c1ccc(C(C)C)cc1)N(CC)CC (stereo not given)
### Response 38
